The measured values listed here are drawn from PubChem BioAssay (NCI).

# maps each entry to its TGI
Tested on: UO-31 renal
Experiment: NCI tumour cell line growth inhibition, 48 h

Recorded TGI, per entry:
>>> result("COc1ccc(/C=C2\\C(=O)N(C(=O)c3ccc(NC(C)=O)cc3)N=C2C)cc1OC")
"> 100 µM"
>>> result("COc1ccc(-c2cc(=O)c3c(C)ccnc3[nH]2)cc1")
"> 100 µM"
>>> result("CC(C)CC(NC(=O)C(O)C(N)Cc1ccccc1)C(=O)O (stereo not drawn)")
"> 100 µM"

Problem: Which TGI value is on record for COc1ccccc1C1C(C#N)=C(N)SC(N)=C1C#N ?
Result: > 100 µM

Problem: Follow-up entry: CCN(CC)C1=Nc2ccccc2-n2ccnc2C1
Result: > 100 µM

Problem: Follow-up entry: CCCCCCCCCCCCCOCCOCCOCCCCC(O)CCCCCCCCCC1=C[C@H](C)OC1=O (stereo partly drawn)
Result: 44.4 µM

Problem: Follow-up entry: CC1OC1C(=O)P(=O)(O)O (stereo not drawn)
Result: > 100 µM

Problem: Follow-up entry: CC(C)(C)CNCCO
Result: > 100 µM

====

# maps each entry to its TGI
Test system: U251 CNS
Experiment: NCI tumour cell line growth inhibition, 48 h

Recorded TGI, per entry:
>>> result("C/C(=N/NC(=S)N1CCCCCC1)c1cccc(/C(C)=N\\NC(=S)N2CCCCCC2)n1")
"4.77 µM"
>>> result("C[N+](C)(N)Cc1nc(-c2ccc(Cl)cc2)no1")
"> 100 µM"

Problem: Which TGI value is on record for COc1cc(OC)c(OC)cc1/C=C/c1ccccn1 ?
Result: > 10 µM

Problem: Follow-up entry: CCOC(=O)c1ccc(-c2onc(C)c2Br)[nH]1
Result: > 100 µM

Problem: Follow-up entry: Nc1nc(N)c2cc(S(=O)(=O)c3cccc(C(F)(F)F)c3)ccc2n1
Result: > 100 µM

Problem: Follow-up entry: CN1CCN(c2cc(F)c(NC3=C(Cl)C(=O)c4ncccc4C3=O)c(F)c2)CC1
Result: 3.44 µM

====

System: CCRF-CEM leukemia
Assay: NCI tumour cell line growth inhibition, 48 h
Where a SMILES comes first, the peptide text is derived from it. [ ]: non-standard residue; d: D form. ξ: configuration not given here. Pentanoyl(2-O,4-OH,5-Cl) = O=C(O)C(O)CC(O)CCl; Ile(3ξ) = CCC(C)[C@H](N)C(=O)O; NMeV = CN[C@H](C(=O)O)C(C)C; NMeA = CN[C@@H](C)C(=O)O; βAla = NCCC(=O)O
Lab note: compare TGI against 30 µM. Equal or greater, write y. Smaller, write n.

Answered cases to consult:
>>> class_label("COc1ccc(/C=C2\\C(=O)N(C(=O)c3ccc(NC(C)=O)cc3)N=C2C)cc1OC")
"y"
>>> class_label("NCCNCCNCc1c2ccccc2c(CNCCNCCN)c2ccccc12")
"y"
>>> class_label("Clc1cccc(-c2cc(-c3ccc4c(c3)OCCO4)[nH]n2)c1")
"y"
>>> class_label("C[N+](C)(N)Cc1nc(-c2ccc(Cl)cc2)no1")
"y"
>>> class_label("CN1CCN(c2ccc3nc(-c4[nH]ncc4Nc4ncnc5[nH]ccc45)[nH]c3c2)CC1")
"n"

Problem: # check: TGI of O=S(=O)(c1ccccc1)N1CCC1c1ccccc1 (centres undefined) is greater than or equal to 30 µM
Result: y

Problem: Follow-up entry: CCOc1cc2c(cc1OC)c[n+](C)c1c3cc(OC)c(OC)cc3ccc21
Result: y

Problem: Follow-up entry: Cc1ccccc1NC(=O)C(=O)C(C1OC(=O)c2ccccc21)[N+](=O)[O-] (centres undefined)
Result: y

Problem: Follow-up entry: C=C(C)[C@@H]1CC[C@]2(C(=O)OC)CC[C@]3(C)[C@H](CC[C@@H]4[C@@](C)(CCc5nn[nH]n5)[C@H](C(=C)C)CC[C@]43C)[C@@H]12
Result: y

Problem: Follow-up entry: O=C1C(NS(=O)(=O)c2ccccc2)=C(n2ccnc2)C(=O)c2ccccc21
Result: y

Problem: Follow-up entry: N#Cc1nc2cc(Cl)c(Cl)cc2nc1-c1ccc(Cl)cc1
Result: n

Problem: Follow-up entry: Clc1ccc2c(NCCCCNc3nc(N4CCOCC4)nc4ccccc34)ccnc2c1
Result: n

Problem: Follow-up entry: Nc1nc(N)c2cc(-c3cc4ccccc4[nH]3)ccc2n1
Result: y

Problem: Follow-up entry: COP(=O)(OC)[C@@](O)(c1ccccc1)[C@@H](O)[C@H](O)c1ccccc1
Result: y

Problem: Follow-up entry: Cc1cccc(-c2cc(=O)c3cccnc3[nH]2)c1
Result: y

Problem: Follow-up entry: CCCSc1ccc2[nH]c(N3C(=O)/C(=C/c4ccc(O)c(OC)c4)N=C3c3ccccc3)cc2c1
Result: y

Problem: Follow-up entry: CN(C)c1ccc(-c2c(C#N)c(-c3ccccc3)n(NS(=O)(=O)c3ccccc3)c(=O)c2C#N)cc1
Result: y

Problem: Follow-up entry: CCC(C)[C@@H]1NC(=O)[C@@H]2CCCN2C(=O)C(CC(O)CCl)OC(=O)CCNC(=O)[C@H](C)N(C)C(=O)[C@H](C(C)C)N(C)C1=O (some centres undefined) (cyclo([Ile(3ξ)][NMeV][NMeA][βAla][Pentanoyl(2-O,4-OH,5-Cl)]P))
Result: y

Problem: Follow-up entry: CC(C)N1CCOC(c2ccc(O)c(O)c2)C1 (centres undefined)
Result: y

====

Tested on: K-562 leukemia
Test: NCI tumour cell line growth inhibition, 48 h
quantity-name: TGI

Recorded TGI, per entry:
>>> result("CC(Nc1cccc(Cl)c1)c1ccncc1 (stereo not given)")
"> 100 µM"
>>> result("O=c1oc2ccccc2cc1P(=O)(O)O")
"> 100 µM"
>>> result("CCOP(=O)(OCC)/C(C#N)=C/c1nc[nH]c1C")
"> 100 µM"
>>> result("CCOc1cc(/C=C/C(=O)CC(=O)/C=C/c2ccc(OC(=O)CNc3nc4ccc(OC)cc4s3)c(OCC)c2)ccc1OC(=O)CNc1nc2ccc(OC)cc2s1")
"> 100 µM"
>>> result("COc1cc(O)c2c(=O)c3cccc(C)c3[nH]c2c1")
"> 10 µM"
>>> result("Fc1ccc(F)c(C=NC23CC4CC(CC(C4)C2)C3)c1")
"> 10 µM"
>>> result("CCOC(=O)c1ccc(-c2onc(C)c2Br)[nH]1")
"> 100 µM"
>>> result("O=C(c1ccccc1)c1nc2ccc(Cl)cc2cc1C(Br)Br")
"3.55 µM"
>>> result("Cc1ccccc1NC(=O)C(=O)C(C1OC(=O)c2ccccc21)[N+](=O)[O-] (stereo not given)")
"> 100 µM"

Shift focus to the following entry.
Problem: Which TGI value is on record for COc1ccc(-c2nn3ncccc3c2-c2ccnc(Nc3ccc(F)c(F)c3)n2)cc1 ?
Result: > 25 µM

====

Test system: SNB-19 CNS
Assay: NCI tumour cell line growth inhibition, 48 h
quantity-name: TGI

>>> result("Cc1cnoc1/N=C1\\C=C(Nc2oncc2C)C(=O)c2ccccc21")
"> 100 µM"
>>> result("O=S1(=O)[C@H](c2ccccc2)c2c(-c3ccccc3)sc(-c3ccccc3)c2[C@@H]1c1ccccc1")
"> 100 µM"
>>> result("O=C(Nc1ccccc1/C=C/c1n[nH]c2ccccc12)c1ccccc1")
"22.5 µM"
>>> result("CCOC(=O)Cn1nnc2ccc(Nc3nc4ccccc4nc3C(=O)OCC)cc21")
"> 100 µM"
>>> result("Cc1ccc2[nH]c3c(c2c1)C1CCC(C(C)(C)C)CC1C1C(=O)N(c2ccc(Oc4ccccc4)cc2)C(=O)C31 (stereo unspecified)")
"> 71.9 µM"

Problem: Form field - read-out: TGI; system: SNB-19 CNS; submitted item: CCN(Cc1ccccc1)c1ccc(/C=C2\COc3ccccc3C2=O)cc1
Result: > 1000 µM

Problem: Follow-up entry: CCOP(=O)(OCC)/C(C#N)=C/c1nc[nH]c1C
Result: > 100 µM

Problem: Follow-up entry: CCOC(=O)N1CCC2(CC1)C[C@](Sc1ccccc1)(C(C)=O)[C@H](C)O2
Result: > 100 µM

Problem: Follow-up entry: O=S(=O)(O)c1cc(O)c(N=NC2S(=O)(=O)OCCOS2(=O)=O)c2ccccc12
Result: > 100 µM

====

# maps each entry to its TGI
Test system: LOX IMVI melanoma
Assay: NCI tumour cell line growth inhibition, 48 h

>>> result("COC(=O)C1=C(C(=O)OC)C23CC4CCC2(C(=O)C1O3)C4(C)C (stereo not given)")
"> 100 µM"

Problem: Which TGI value is on record for COc1cccc(C2CC(C)(O)Oc3cc4c(cc32)OCO4)c1 (stereo not given) ?
Result: > 100 µM

Problem: Follow-up entry: CCOP(=O)(OCC)/C(C#N)=C/c1nc[nH]c1C
Result: > 100 µM

Problem: Follow-up entry: COc1ccc(CC(C)NCC(O)c2ccc(O)c(NC=O)c2)cc1 (stereo not given)
Result: > 100 µM

Problem: Follow-up entry: COc1ccc(-c2nc(-c3nc4cc(Cl)c(Cl)cc4[nH]3)c3ccccn23)cc1
Result: > 100 µM

Problem: Follow-up entry: OC1C2CN3CCN(C2)CC1(c1ccccc1)C3 (stereo not given)
Result: > 100 µM

Problem: Follow-up entry: CC(=O)Nc1ccc(CC[C@H]2CCC/C=C/[C@@H]3C[C@H](O)C[C@H]3[C@H](O)/C=C/C(=O)O2)cc1
Result: 0.405 µM
